# target-under-test: Cannabinoid receptor 1 (Homo sapiens, UniProt P21554)
# Sequence (P21554 whole entry): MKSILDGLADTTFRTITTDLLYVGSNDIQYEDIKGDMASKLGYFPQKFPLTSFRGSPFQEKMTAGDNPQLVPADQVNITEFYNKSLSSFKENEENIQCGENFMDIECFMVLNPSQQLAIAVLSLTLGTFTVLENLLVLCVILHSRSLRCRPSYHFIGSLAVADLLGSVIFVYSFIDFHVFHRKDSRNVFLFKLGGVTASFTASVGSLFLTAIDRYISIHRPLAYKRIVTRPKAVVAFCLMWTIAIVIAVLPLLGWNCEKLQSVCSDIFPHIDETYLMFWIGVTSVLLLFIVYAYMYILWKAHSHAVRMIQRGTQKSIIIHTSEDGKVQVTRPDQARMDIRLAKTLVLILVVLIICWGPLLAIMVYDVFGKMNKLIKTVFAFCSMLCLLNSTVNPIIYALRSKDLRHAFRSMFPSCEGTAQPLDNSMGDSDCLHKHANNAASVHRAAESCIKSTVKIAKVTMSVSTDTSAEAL
# measurement-protocol: Activity at hemagglutinin-tagged human CB1 receptor expressed in HEK293 cells assessed as effect on forskolin-induced cAMP accumulation after 15 mins in presence of CP55,940 by cAMP BRET assay
# Type: functional, cell-based

compound: CCc1c(C(=O)NCCc2ccc(N3CCCCC3)cc2)[nH]c2ccc(Cl)cc12
units: nM
EC50: 640
--
compound: CC(O)c1c(C(=O)NCCc2ccc(N3CCCCC3)cc2)[nH]c2ccc(Cl)cc12 (stereo not drawn)
units: nM
EC50: 1510
--
compound: CCc1c(C(=O)NCCc2ccc(C)cc2)[nH]c2ccc(Cl)cc12
units: nM
EC50: 470

====

# target-under-test: Cannabinoid receptor 1 (Homo sapiens, UniProt P21554)
# measurement-protocol: Activity at hemagglutinin-tagged human CB1 receptor expressed in HEK293 cells assessed as effect on forskolin-induced cAMP accumulation after 10 mins in presence of CP55,940 by cAMP BRET assay
# Type: functional, cell-based
pEC50: −log10 of the molar value.
A collection of molecules and their measured pEC50

molecule: CCc1c(C(=O)NCCc2ccc(C)cc2)[nH]c2ccc(Cl)cc12
target-under-test: Cannabinoid receptor 1 (Homo sapiens, UniProt P21554)
pEC50: 6.22
//
molecule: CCc1c(C(=O)NCCc2ccc(N3CCCCC3)cc2)[nH]c2ccc(Cl)cc12
target-under-test: Cannabinoid receptor 1 (Homo sapiens, UniProt P21554)
pEC50: 5.68
//
molecule: CC(O)c1c(C(=O)NCCc2ccc(N3CCCCC3)cc2)[nH]c2ccc(Cl)cc12 (stereo not drawn)
target-under-test: Cannabinoid receptor 1 (Homo sapiens, UniProt P21554)
pEC50: 5.53
//
molecule: CCc1c(C(=O)NCCc2ccc(N3CCCCC3)cc2)[nH]c2ccccc12
target-under-test: Cannabinoid receptor 1 (Homo sapiens, UniProt P21554)
pEC50: 5.52
//
molecule: CCc1c(C(=O)NCCc2ccc(Cl)cc2)[nH]c2ccc(Cl)cc12
target-under-test: Cannabinoid receptor 1 (Homo sapiens, UniProt P21554)
pEC50: 5.74
//
molecule: CCc1c(C(=O)NCCc2ccc(F)cc2)[nH]c2ccc(Cl)cc12
target-under-test: Cannabinoid receptor 1 (Homo sapiens, UniProt P21554)
pEC50: 5.34
//
molecule: CCc1c(C(=O)NCCc2ccc(N(C)C)cc2)[nH]c2ccc(Cl)cc12
target-under-test: Cannabinoid receptor 1 (Homo sapiens, UniProt P21554)
pEC50: 6.37
//
molecule: CCc1c(C(=O)NCCc2ccc([N+](=O)[O-])cc2)[nH]c2ccc(Cl)cc12
target-under-test: Cannabinoid receptor 1 (Homo sapiens, UniProt P21554)
pEC50: 6.18

====

# target-under-test: Cannabinoid receptor 1 (Homo sapiens, UniProt P21554)
# measurement-protocol: Allosteric agonist activity at hemagglutinin-tagged human CB1 receptor expressed in HEK293 cells assessed as effect on forskolin-induced cAMP accumulation at 10 uM by kinetic cAMP assay
# Format: functional, cell-based
The source made the active and inactive calls. The rule behind the calls is not given here.
Labels: yes (1) for active, no (0) for inactive

compound: CC(O)c1c(C(=O)NCCc2ccc(N3CCCCC3)cc2)[nH]c2ccc(Cl)cc12 (stereo not given)
label-class: yes (1)
//
compound: CCc1c(C(=O)NCCc2ccc(N3CCCCC3)cc2)[nH]c2ccccc12
label-class: yes (1)
//
compound: CCc1c(C(=O)NCCc2ccc(N)cc2)[nH]c2ccc(Cl)cc12
label-class: yes (1)
//
compound: CCc1c(C(=O)NCCc2ccc(F)cc2)[nH]c2ccc(Cl)cc12
label-class: no (0)
//
compound: O=C(NCCc1ccc([N+](=O)[O-])cc1)c1cc2cc(Cl)ccc2[nH]1
label-class: no (0)
//
compound: CCc1c(C(=O)NCCc2ccc(N3CCCCC3)cc2)[nH]c2ccc(Cl)cc12
label-class: yes (1)
//
compound: CCc1c(C(=O)NCCc2ccc(C)cc2)[nH]c2ccc(Cl)cc12
label-class: no (0)
//
compound: O=C(NCCc1ccc(Cl)cc1)c1cc2cc(Cl)ccc2[nH]1
label-class: no (0)
//
compound: CCc1c(C(=O)OCCc2ccc(NC)cc2)[nH]c2ccc(Cl)cc12
label-class: no (0)
//
compound: CCc1c(C(=O)NCCc2ccc(N3CCCC3)cc2)[nH]c2ccc(Cl)cc12
label-class: no (0)
//
compound: CCc1c(C(=O)NCCc2ccc([N+](=O)[O-])cc2)[nH]c2ccc(Cl)cc12
label-class: yes (1)
//
compound: CCc1c(C(=O)OCCc2ccc(N3CCCCC3)cc2)[nH]c2ccc(Cl)cc12
label-class: no (0)
//
compound: O=C(NCCc1ccc(N2CCCCC2)cc1)c1cc2cc(Cl)ccc2[nH]1
label-class: no (0)
//
compound: CCc1c(C(=O)NCCc2ccc(Cl)cc2)[nH]c2ccc(Cl)cc12
label-class: no (0)
//
compound: CCc1c(C(=O)NCCc2ccc(N(C)C)cc2)[nH]c2ccc(Cl)cc12
label-class: yes (1)
